Recorded values, source patent US20260242478A1.

- Assayed Target: T1, Anti-CD28 Fab (SEQ ID NOs: 696, 697)
- T1 construct: Biotinylated and captured on neutravidin coated plates in the phage ELISA
- T1 sequence (VH, as listed by the source, chain 1 of 2): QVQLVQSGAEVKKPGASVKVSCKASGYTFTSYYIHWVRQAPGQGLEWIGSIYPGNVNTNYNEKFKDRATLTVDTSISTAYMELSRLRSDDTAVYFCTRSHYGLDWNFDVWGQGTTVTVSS
- T1 sequence (VL, as listed by the source, chain 2 of 2): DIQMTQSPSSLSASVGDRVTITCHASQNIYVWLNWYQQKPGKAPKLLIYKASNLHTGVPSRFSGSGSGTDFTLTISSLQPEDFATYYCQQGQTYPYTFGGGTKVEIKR
- Assay Notes: phage ELISA; Fab-coated wells first incubated with CD28 antigen (competitor), then clonal phage, anti-M13 HRP
Readout Kind: Anti-CD28 Fab signal in the presence of CD28 (phage binding ELISA)

# Binder, Reading
records = [
    ("YCDGHSAEYLGKCL [Phage-1242]", 0.07),
    ("YCDGHIPQYVEKCL [Phage-1235]", 0.08),
    ("YCDGHSFEYMAKCL [Phage-1241]", 0.06),
    ("YCAGHSAQYMWKCL [Phage-1240]", 0.07),
]
